Data provenance is patent US10562891B2.

- Assayed target: catalytic domain of human PARP14 (Homo sapiens (Human), UniProt Q460N5)
- Sequence (Q460N5 1611-1801): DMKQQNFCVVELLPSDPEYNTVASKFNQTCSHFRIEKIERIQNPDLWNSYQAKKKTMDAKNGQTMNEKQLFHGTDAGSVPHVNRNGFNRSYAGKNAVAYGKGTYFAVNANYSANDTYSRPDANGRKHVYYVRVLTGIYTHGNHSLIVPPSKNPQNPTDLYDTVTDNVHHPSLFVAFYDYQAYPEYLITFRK
- Protocol details: Enzymatic assay for inhibition of PARP14 (DELFIA, auto-modification with biotin-NAD)
- Protocol conditions: auto-modification of PARP14 by biotin-NAD, 50 nM PARP14, 3 μM biotin-NAD
Counter-ions that a name gives are not always drawn.
Here the recorded IC50 is given for each entry.

Take a look at these entries with their results.
{"Compound": "NC[C@H]1CC[C@@H](SCc2nc3cc(NC4CCCC4)cc(F)c3c(=O)[nH]2)CO1 (relative stereo) [Example 242, bis Hydrochloride]", "IC50": "1000 to 10000 nM"}
{"Compound": "CO[C@H]1CC[C@H](SCc2nc3c(C)cccc3c(=O)[nH]2)CC1", "IC50": "1000 to 10000 nM"}
{"Compound": "O=c1[nH]c(CS[C@H]2CC[C@H](O)CC2)nc2cc(F)ccc12", "IC50": "1000 to 10000 nM"}

Continue with the compound presented below.
Query O=c1[nH]c(CS[C@H]2CCNC[C@@H](F)C2)nc2cc(NC3CCCC3)cc(F)c12 (relative stereo) yields IC50 of < 1000 nM

* * *

- Assayed target: catalytic domain of human PARP14 (Homo sapiens (Human), UniProt Q460N5)
- Protocol details: Enzymatic assay for inhibition of PARP14 (DELFIA, auto-modification with biotin-NAD)
- Protocol conditions: auto-modification of PARP14 by biotin-NAD, 50 nM PARP14, 3 μM biotin-NAD
Where a name gives a salt, the structure may show the parent alone.
Endpoint: IC50

{"Compound": "O=c1[nH]c(CSC2CCOCC2)nc2cc(NC3CCCC3)ncc12", "IC50": "1000 to 10000 nM"}
{"Compound": "O=c1[nH]c(CSC2CCOCC2)nc2cc(NC3CCC3)cc(F)c12", "IC50": "< 1000 nM"}
{"Compound": "Cc1cccc2c(=O)[nH]c(CS[C@@H]3CC[C@@H](CCN)C3)nc12 (relative stereo)", "IC50": "1000 to 10000 nM"}
{"Compound": "COc1cc2c(=O)[nH]c(CSC3CCNCC3)nc2cc1NCC1CCC1 [Example 230, Hydrochloride]", "IC50": "1000 to 10000 nM"}
{"Compound": "CN1CC[C@H](CNc2cc3nc(CSC4CCOCC4)[nH]c(=O)c3c(F)c2F)[C@@H](F)C1", "IC50": "< 1000 nM"}

Query `Cc1ccc(C(F)(F)F)c2c(=O)[nH]c(CS[C@H]3CC[C@@H](O)CC3)nc12` yields IC50 of < 1000 nM

Query `C[C@]1(O)C[C@@H](COc2cc(F)c3c(=O)[nH]c(CSC4CCOCC4)nc3c2)C1` yields IC50 of < 1000 nM

Query O=c1[nH]c(CS[C@H]2CC[C@H](O)CC2)nc2cc(OC[C@@H]3CCOC3)cc(F)c12 [Example 325a] yields IC50 of < 1000 nM

Query `CC(=O)N1CCC(SCc2nc3c(C)cccc3c(=O)[nH]2)CC1` yields IC50 of 1000 to 10000 nM

Query Cc1cccc2c(=O)[nH]c(CSC3CCN(C)C3)nc12 (centres unmarked) yields IC50 of 1000 to 10000 nM

Query `O=c1[nH]c(CS[C@H]2CC[C@H](OC(F)(F)F)CC2)nc2cc(OCC3CCOCC3)cc(F)c12` yields IC50 of < 1000 nM

Query CN1CCCC(Nc2ccc3c(=O)[nH]c(CSC4CCOCC4)nc3c2)C1 (centres unmarked) yields IC50 of > 10000 nM

Query CN1CC[C@@H](COc2cc(F)c3c(=O)[nH]c(CSC4CCOCC4)nc3c2)[C@H](F)C1 [Example 327a] yields IC50 of < 1000 nM

Query Cc1cccc2c(=O)[nH]c(CSC3CCN(C[C@@H]4CCCN4)CC3)nc12 [Example 161, Hydrochloride] yields IC50 of 1000 to 10000 nM
